Assay read-out Ki; system under study: hMeprin β (Homo sapiens).
Sequence (Q16820 62-701): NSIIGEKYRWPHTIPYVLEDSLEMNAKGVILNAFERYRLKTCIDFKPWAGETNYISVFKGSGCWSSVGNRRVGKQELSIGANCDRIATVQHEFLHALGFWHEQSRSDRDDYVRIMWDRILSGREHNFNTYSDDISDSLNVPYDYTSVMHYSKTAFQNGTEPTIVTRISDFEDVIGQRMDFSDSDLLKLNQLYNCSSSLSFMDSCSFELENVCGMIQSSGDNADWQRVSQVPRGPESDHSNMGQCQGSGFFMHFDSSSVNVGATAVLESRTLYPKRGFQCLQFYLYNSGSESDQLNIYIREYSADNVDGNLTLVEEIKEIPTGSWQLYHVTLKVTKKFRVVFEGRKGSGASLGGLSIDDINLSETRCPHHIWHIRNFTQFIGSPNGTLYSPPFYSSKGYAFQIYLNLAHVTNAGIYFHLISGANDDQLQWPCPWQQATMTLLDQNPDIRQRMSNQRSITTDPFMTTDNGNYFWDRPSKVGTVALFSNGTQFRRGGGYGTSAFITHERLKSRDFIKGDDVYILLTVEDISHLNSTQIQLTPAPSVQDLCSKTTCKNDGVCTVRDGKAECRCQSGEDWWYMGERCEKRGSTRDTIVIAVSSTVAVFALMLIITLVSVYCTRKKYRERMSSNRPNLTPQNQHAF
Answers are plain numbers, in µM.

Please give Ki for each item listed below.
1. COc1cccc(-c2n[nH]c(-c3ccccc3)c2CC(=O)NO)c1
2. O=C(Cc1c(-c2ccc(Cl)c(O)c2F)n[nH]c1-c1ccccc1)NO
3. O=C(Cc1c(-c2ccccc2)nn(Cc2ccc(Cl)c(O)c2F)c1-c1ccccc1)NO
4. O=C(Cc1c(-c2c[nH]nc2C(F)(F)F)n[nH]c1-c1ccccc1)NO
5. O=C(Cc1c(-c2cccc(C(=O)O)c2)[nH]nc1[C@H]1CC[C@H](C(=O)O)CC1)NO

Response:
1. 0.116
2. 0.061
3. 0.009
4. 0.088
5. 0.021

---

# EXPERIMENTAL_TARGET: hADAM 10 (Homo sapiens, UniProt O14672)
# Construct: purchased R&D systems
# Sequence (O14672 214-748): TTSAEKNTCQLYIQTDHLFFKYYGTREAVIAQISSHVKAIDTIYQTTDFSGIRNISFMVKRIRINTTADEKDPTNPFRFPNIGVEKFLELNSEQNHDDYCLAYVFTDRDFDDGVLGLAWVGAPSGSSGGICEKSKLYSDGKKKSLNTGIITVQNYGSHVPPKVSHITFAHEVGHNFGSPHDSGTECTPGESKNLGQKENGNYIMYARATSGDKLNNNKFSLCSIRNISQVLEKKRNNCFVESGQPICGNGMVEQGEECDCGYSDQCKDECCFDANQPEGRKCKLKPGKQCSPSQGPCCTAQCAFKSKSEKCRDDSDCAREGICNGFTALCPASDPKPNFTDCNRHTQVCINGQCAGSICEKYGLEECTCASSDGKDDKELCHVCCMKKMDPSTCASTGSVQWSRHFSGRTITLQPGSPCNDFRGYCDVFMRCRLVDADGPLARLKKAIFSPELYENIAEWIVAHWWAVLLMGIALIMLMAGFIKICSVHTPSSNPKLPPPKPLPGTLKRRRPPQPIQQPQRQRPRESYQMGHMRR
# METHOD_SUMMARY: Residual enzyme activity of other metalloproteases
# Assay type: biochemical
# EXPERIMENTAL_PARAMETERS: 200 μM inhibitor; read-out: Residual enzyme activity ADAM10
Classification by remaining activity at 200 µM | ranges: bin 1 (below 10%), bin 2 (10% to below 40%), bin 3 (40% or more)

Reference set (3 entries):
COc1ccc(-c2n[nH]c(-c3ccccc3)c2CC(=O)NO)cc1OC	bin 2
COc1cccc(-c2n[nH]c(-c3ccccc3)c2CC(=O)NO)c1	bin 1
O=C(Cc1c(-c2ccccc2)noc1-c1ccccc1)NO	bin 2

Prompt: Record O=C(Cn1c(-c2ccccc2)nc2ccccc21)NO — which class?
Response: bin 3

Prompt: Category of O=C(Cc1c(-c2ccccc2)nn(Cc2cccc(C(=O)O)c2)c1-c1ccccc1)NO , please.
Response: bin 3

Prompt: Category of O=C(Cc1c(-c2ccc3c(c2)OCO3)n[nH]c1-c1ccc2c(c1)OCO2)NO , please.
Response: bin 1

Prompt: Please indicate the class for O=C(Cc1c(-c2ccccc2)n[nH]c1-c1ccccc1)NO based on its remaining activity at 200 µM.
Response: bin 2

Prompt: Textbook exercise: identify the category of the compound given here, O=C(CCc1c(-c2ccccc2)noc1-c1ccccc1)NO , according to its measured value.
Response: bin 2

Prompt: Which class is correct for the following compound? O=C(Cc1c(-c2ccccc2)nn(Cc2ccc(C(=O)O)cc2)c1-c1ccccc1)NO
Response: bin 3

---

# EXPERIMENTAL_TARGET: hMeprin α (Homo sapiens)
# Sequence (Q16819 66-746): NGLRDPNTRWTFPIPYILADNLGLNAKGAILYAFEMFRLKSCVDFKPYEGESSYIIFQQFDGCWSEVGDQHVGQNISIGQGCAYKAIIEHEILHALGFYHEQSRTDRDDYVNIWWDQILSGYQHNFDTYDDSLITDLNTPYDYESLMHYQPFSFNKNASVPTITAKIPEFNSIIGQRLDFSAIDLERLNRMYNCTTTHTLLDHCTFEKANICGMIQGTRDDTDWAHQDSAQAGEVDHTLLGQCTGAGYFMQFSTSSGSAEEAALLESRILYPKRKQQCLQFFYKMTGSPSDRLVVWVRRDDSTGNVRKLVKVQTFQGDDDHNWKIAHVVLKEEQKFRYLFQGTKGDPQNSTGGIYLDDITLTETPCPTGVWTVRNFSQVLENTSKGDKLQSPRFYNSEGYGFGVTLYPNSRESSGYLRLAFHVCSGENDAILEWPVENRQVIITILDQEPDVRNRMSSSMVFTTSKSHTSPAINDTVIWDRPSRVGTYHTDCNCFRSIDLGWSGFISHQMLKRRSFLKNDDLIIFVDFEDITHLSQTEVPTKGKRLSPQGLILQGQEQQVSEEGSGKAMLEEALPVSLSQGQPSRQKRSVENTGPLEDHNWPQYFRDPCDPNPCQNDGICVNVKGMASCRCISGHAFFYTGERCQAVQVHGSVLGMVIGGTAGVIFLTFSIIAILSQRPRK
# METHOD_SUMMARY: Enzymatic assay, quenched peptide substrate cleavage, method A
# Assay type: biochemical
# EXPERIMENTAL_PARAMETERS: geometric mean (geometric SD factor in parentheses), read-out: Meprin alpha IC50
The label is Yes for IC50 below 100 nM and No for IC50 equal to or exceeding 100 nM.

Reference set, count: 9
O=C(Cc1c(-c2ccccc2)nn(-c2cccc(C(=O)O)c2)c1-c1ccccc1)NO	Yes
O=C(Cc1c(-c2ccccc2)ncn1-c1ccccc1)NO	Yes
O=C(CCn1c(-c2ccccc2)nc2ccccc21)NO	No
O=C(CNc1c(-c2cccc(C(=O)O)c2)nc2ccccn12)NO	No
O=C(CNc1c(-c2ccccc2)nc2c(C(=O)O)cccn12)NO	No
O=C(Cc1c2ccccc2nn1-c1ccccc1)NO	No
O=C(Cc1c(-c2ccccc2)nn(Cc2ccccc2)c1-c1ccccc1)NO	Yes
O=C(CCc1c(-c2ccccc2)n[nH]c1-c1ccccc1)NO	No
Cn1nc(-c2ccccc2)c(CC(=O)NO)c1-c1ccccc1	Yes

Prompt: Lab note: IC50 threshold 100 nM. Does this compound come in strictly under it? O=C(Cc1c(-c2ccccc2)nn(-c2ccccc2)c1-c1ccccc1)NO
Response: Yes
